Hey, just so you know, these numbers are from patent US20250243218A1.

# System Under Test: hERG potassium channel (Homo sapiens)
# Construct: expressed in transfected cells
# Experimental Details: cell-based
# Experimental Conditions: IC50 (μM), inhibition of cardiac hERG potassium channel, manual patch-clamp, stably overexpressed hERG channel
# Text: Test Example 2: Effect of Compounds on Current in Stably Overexpressed hERG Channel
Result Type: IC50 (µM)
Unit µM implied. Number only.

q: Recorded IC50 of `COC(=O)[C@H](c1ccccc1Cl)N1CCc2sc(OC(=O)N3CCN(C)CC3)cc2C1` , please.
a: 20.5

q: # lookup: IC50 of COC(=O)[C@H](c1ccccc1Cl)N1CCc2sc(OC(=O)N3CCC(N4CCCCC4)CC3)cc2C1 [Compound 7]
a: 25.4

q: Reported IC50, compound `COC(=O)[C@H](c1ccccc1Cl)N1CCc2sc(OC(=O)N3CCN(C4CCCCC4)CC3)cc2C1` : ____
a: 14.9

q: What value of measured IC50 is listed for `COC(=O)[C@H](c1ccccc1Cl)N1CCc2sc(OC(=O)N3CCC(N4CCN(C)CC4)CC3)cc2C1` ?
a: 25.9

q: Tell me the measured IC50 of `COC(=O)[C@H](c1ccccc1Cl)N1CCc2sc(OC(=O)N3CCN(C4CC4)CC3)cc2C1` , please.
a: 16.4

q: Please report the recorded IC50 for COC(=O)[C@H](c1ccccc1Cl)N1CCc2sc(OC(=O)N3CCC(C4CCN(C)C4)CC3)cc2C1 (stereo partly drawn) .
a: 27.2

###

IC50 for assorted compounds
# System Under Test: hERG potassium channel (Homo sapiens, UniProt Q12809)
# Construct: expressed in transfected cells
# Sequence (Q12809 whole entry): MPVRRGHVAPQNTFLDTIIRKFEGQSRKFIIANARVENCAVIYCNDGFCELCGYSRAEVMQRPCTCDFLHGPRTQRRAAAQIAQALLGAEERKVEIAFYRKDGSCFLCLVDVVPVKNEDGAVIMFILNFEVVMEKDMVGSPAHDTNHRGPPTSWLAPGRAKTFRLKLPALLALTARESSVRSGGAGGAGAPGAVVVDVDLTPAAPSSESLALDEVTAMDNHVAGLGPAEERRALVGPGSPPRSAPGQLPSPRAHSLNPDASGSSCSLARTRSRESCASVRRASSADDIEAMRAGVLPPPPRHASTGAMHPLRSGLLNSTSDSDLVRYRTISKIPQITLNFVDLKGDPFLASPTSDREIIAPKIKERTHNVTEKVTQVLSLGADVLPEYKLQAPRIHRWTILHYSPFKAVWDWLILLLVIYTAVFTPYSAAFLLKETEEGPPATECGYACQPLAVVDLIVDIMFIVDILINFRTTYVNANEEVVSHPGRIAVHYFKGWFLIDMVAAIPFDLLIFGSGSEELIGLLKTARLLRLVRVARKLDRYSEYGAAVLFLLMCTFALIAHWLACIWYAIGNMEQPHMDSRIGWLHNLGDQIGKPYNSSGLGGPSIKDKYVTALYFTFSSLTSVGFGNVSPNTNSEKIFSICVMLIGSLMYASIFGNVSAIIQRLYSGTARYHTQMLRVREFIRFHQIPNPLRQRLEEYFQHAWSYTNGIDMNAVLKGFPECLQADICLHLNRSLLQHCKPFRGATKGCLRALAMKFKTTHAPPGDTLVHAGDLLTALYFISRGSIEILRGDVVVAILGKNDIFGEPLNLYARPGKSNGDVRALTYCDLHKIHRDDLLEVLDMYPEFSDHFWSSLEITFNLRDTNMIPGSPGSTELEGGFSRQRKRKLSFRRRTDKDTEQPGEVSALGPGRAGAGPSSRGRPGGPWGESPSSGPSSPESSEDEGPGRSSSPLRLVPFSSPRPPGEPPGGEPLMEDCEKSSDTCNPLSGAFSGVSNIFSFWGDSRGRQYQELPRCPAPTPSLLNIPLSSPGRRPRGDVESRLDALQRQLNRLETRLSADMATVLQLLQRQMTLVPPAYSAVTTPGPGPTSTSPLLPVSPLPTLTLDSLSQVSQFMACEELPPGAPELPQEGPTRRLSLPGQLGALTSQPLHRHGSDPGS
# Experimental Details: cell-based
# Experimental Conditions: IC50 (μM), inhibition of cardiac hERG potassium channel, manual patch-clamp, stably overexpressed hERG channel
Where a name gives a salt, the structure may show the parent alone.
Lab book: enter the figure in µM, no units written.

Before answering, review these 2 worked examples.
Compound | System Under Test | IC50 (µM)
CCCN1CCN(C(=O)Oc2cc3c(s2)CCN([C@H](C(=O)OC)c2ccccc2Cl)C3)CC1 | hERG potassium channel (Homo sapiens, UniProt Q12809) | 15.2
COC(=O)[C@H](c1ccccc1Cl)N1CCc2sc(OC(=O)N3CCC(N4CCCCC4)CC3)cc2C1 [Compound 8, hydrochloride] | hERG potassium channel (Homo sapiens, UniProt Q12809) | 27.3

Proceeding to the next compound to report its IC50.
q: # input compound: `COC(=O)[C@H](c1ccccc1Cl)N1CCc2sc(OC(=O)N3CCN(C4CCCC4)CC3)cc2C1` ; wanted: its IC50
a: 15.8
